# experimental target: CAMK2D (human) (UniProt Q13557)
# Sequence (Q13557 whole entry, looked up): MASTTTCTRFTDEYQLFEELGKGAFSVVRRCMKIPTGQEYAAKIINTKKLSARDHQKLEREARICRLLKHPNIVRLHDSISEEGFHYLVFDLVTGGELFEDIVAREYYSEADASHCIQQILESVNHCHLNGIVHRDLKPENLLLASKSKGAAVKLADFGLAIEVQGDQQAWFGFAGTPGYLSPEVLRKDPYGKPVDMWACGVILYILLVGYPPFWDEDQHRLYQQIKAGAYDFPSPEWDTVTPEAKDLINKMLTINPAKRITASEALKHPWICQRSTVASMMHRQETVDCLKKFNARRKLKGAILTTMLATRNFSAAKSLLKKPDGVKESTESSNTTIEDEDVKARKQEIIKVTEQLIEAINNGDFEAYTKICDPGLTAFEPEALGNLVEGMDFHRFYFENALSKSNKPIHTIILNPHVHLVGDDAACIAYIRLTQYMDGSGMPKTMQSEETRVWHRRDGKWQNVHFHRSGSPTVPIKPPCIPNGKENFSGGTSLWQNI
# assay text: KINOMEscan competition binding
# assay context: compound 10.0 µM
reported endpoint: kinase still bound, per cent of control (%)
Record the value in %, omitting the unit from your answer.

CCc1nc(-c2cccc(C)c2)c(-c2ccnc(NC(=O)c3ccccc3)c2)s1 | 100
COc1cc(N2CCC(C(N)=O)CC2)ccc1Nc1nc(N)c(Cl)c(Nc2ccccc2S(=O)(=O)C(C)C)n1 | 100
COc1cc2ncnc(Nc3cccc(Cl)c3)c2cc1OC | 61
CCOc1cc(N2CCC(O)CC2)ccc1Nc1ncc2c(n1)N(C)c1ccccc1C(=O)N2C | 100
CNC(=O)Nc1ccc(-c2nc(N3CC4CCC(C3)O4)c3cnn(C4CCC5(CC4)OCCO5)c3n2)cc1 | 100
C=CC(=O)Nc1ccc(C(=O)c2sc(Nc3ccc(N4CCN(C)CC4)cc3OC)nc2N)cc1 | 2.1
Cc1cn(-c2cc(C(=O)Nc3ccc(C)c(NC(=O)c4ccno4)c3)cc(C(F)(F)F)c2)cn1 | 100
COc1cc2c(Nc3ccc(NC(=O)c4ccccc4)cc3)ncnc2cc1OCCCN1CCOCC1 | 100

# returns recorded kinase still bound, per cent of control (system: CAMK2D (human) (UniProt Q13557)) for COc1cc(C)c(Sc2cnc(NC(=O)c3ccc(CNC(C)C(C)C)cc3)s2)cc1C(=O)N1CCN(C(C)=O)CC1 (centres undefined)
100

---

# experimental target: ALK (human) (UniProt Q9UM73)
# Sequence (Q9UM73 whole entry, looked up): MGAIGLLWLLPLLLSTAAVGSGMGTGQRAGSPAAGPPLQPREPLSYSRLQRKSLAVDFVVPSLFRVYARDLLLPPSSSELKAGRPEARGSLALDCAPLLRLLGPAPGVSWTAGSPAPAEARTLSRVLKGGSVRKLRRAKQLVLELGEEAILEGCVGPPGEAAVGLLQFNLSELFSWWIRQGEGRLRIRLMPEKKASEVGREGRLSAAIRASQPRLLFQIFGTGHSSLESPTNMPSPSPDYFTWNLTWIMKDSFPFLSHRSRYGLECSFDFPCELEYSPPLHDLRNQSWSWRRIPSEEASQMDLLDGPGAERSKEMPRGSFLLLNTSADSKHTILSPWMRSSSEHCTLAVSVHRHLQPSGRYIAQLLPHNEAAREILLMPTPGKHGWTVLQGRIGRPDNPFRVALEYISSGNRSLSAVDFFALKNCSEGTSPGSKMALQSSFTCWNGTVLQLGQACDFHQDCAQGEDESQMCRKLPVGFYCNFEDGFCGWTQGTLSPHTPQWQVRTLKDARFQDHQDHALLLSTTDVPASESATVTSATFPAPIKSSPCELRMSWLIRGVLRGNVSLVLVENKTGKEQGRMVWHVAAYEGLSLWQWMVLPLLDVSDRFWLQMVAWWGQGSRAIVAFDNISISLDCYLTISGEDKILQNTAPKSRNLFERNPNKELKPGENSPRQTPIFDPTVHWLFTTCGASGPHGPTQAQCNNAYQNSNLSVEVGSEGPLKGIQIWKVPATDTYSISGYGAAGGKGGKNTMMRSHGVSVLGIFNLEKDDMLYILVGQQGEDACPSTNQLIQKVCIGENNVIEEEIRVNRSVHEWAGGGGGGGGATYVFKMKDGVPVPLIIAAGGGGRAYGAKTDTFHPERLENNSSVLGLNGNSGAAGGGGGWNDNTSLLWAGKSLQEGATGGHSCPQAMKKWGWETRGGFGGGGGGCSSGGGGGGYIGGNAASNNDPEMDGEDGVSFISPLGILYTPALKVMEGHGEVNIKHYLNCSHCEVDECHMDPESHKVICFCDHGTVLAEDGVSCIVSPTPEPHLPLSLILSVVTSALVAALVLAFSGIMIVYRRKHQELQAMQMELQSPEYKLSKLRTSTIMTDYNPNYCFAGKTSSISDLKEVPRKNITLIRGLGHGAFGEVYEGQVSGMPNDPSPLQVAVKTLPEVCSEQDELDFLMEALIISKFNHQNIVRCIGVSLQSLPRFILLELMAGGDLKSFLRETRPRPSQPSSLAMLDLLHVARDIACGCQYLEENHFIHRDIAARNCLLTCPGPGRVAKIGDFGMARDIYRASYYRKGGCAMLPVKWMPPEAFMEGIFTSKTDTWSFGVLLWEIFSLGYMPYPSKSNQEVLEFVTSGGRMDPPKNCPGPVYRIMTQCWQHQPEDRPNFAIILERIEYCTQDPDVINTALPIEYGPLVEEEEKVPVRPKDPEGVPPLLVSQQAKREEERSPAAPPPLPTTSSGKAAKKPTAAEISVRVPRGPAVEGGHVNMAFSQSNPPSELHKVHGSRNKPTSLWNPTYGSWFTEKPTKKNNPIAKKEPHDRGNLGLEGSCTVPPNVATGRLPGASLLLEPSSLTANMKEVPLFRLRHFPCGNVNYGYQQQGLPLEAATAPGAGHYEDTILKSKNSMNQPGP
# assay text: KINOMEscan competition binding
# assay context: compound 10.0 µM
reported endpoint: kinase still bound, per cent of control
Numeric answer plus unit only.

Example cases with answers are listed next.
COc1cc(N2CCC(C(N)=O)CC2)ccc1Nc1nc(N)c(Cl)c(Nc2ccccc2S(=O)(=O)C(C)C)n1 | 4.5%
COc1cc(C)c(Sc2cnc(NC(=O)c3ccc(CNC(C)C(C)C)cc3)s2)cc1C(=O)N1CCN(C(C)=O)CC1 (centres undefined) | 4.6%
C=CC(=O)Nc1ccc(C(=O)c2sc(Nc3ccc(N4CCN(C)CC4)cc3OC)nc2N)cc1 | 8.4%
CC1=C(C(=O)Nc2cc3cn[nH]c3cc2F)C(c2ccc(C(F)(F)F)cc2)CC(=O)N1 (centres undefined) | 77%
COc1cc2ncnc(Nc3cccc(Cl)c3)c2cc1OC | 25%

What does the record list as kinase still bound, per cent of control for `CC(=O)c1c(C)c2cnc(Nc3ccc(N4CCNCC4)cn3)nc2n(C2CCCC2)c1=O` ?
38%

What does the record list as kinase still bound, per cent of control for `CCN(CCO)CCCOc1ccc2c(Nc3cc(CC(=O)Nc4cccc(F)c4)[nH]n3)ncnc2c1` ?
98%

What does the record list as kinase still bound, per cent of control for `CCOc1cc(N2CCC(O)CC2)ccc1Nc1ncc2c(n1)N(C)c1ccccc1C(=O)N2C` ?
29%

What does the record list as kinase still bound, per cent of control for `N#C/C(=C1/Nc2ccccc2S1)c1ccnc(NCCc2cccnc2)n1` ?
100%

---

As shown below, each of these compounds has a reported kinase still bound, per cent of control value.
# experimental target: TRPM6 (human) (UniProt Q9BX84)
# assay text: KINOMEscan competition binding
# assay context: compound 10.0 µM
Record the value in %, omitting the unit from your answer.

COc1cc2ncnc(Nc3cccc(Cl)c3)c2cc1OC | 77
N#Cc1cc(-c2ccnc(Nc3ccc(-n4cnc(-c5cccnc5)n4)cc3)n2)cc(N2CCOCC2)c1 | 100
CCN(CCO)CCCOc1ccc2c(Nc3cc(CC(=O)Nc4cccc(F)c4)[nH]n3)ncnc2c1 | 100

Continue with the compound presented below.
What does the record list as kinase still bound, per cent of control for `CNC(=O)Nc1ccc(-c2nc(N3CC4CCC(C3)O4)c3cnn(C4CCC5(CC4)OCCO5)c3n2)cc1` ?
100

---

As shown below, each of these compounds has a reported kinase still bound, per cent of control value.
# experimental target: MTOR (human)
# assay text: KINOMEscan competition binding
# assay context: compound 10.0 µM

Example cases with answers are listed next.
CC(=O)c1c(C)c2cnc(Nc3ccc(N4CCNCC4)cn3)nc2n(C2CCCC2)c1=O | 40%
O=c1[nH]c2ccccc2n1C1CCN(Cc2ccc(-c3nc4cc5[nH]cnc5cc4nc3-c3ccccc3)cc2)CC1 | 100%
C=CC(=O)Nc1ccc(C(=O)c2sc(Nc3ccc(N4CCN(C)CC4)cc3OC)nc2N)cc1 | 90%

Continue with the compound presented below.
What does the record list as kinase still bound, per cent of control for `CNC(=O)Nc1ccc(-c2nc(N3CC4CCC(C3)O4)c3cnn(C4CCC5(CC4)OCCO5)c3n2)cc1` ?
5.7%

---

# experimental target: TYRO3 (human) (UniProt Q06418)
# Sequence (Q06418 whole entry, looked up): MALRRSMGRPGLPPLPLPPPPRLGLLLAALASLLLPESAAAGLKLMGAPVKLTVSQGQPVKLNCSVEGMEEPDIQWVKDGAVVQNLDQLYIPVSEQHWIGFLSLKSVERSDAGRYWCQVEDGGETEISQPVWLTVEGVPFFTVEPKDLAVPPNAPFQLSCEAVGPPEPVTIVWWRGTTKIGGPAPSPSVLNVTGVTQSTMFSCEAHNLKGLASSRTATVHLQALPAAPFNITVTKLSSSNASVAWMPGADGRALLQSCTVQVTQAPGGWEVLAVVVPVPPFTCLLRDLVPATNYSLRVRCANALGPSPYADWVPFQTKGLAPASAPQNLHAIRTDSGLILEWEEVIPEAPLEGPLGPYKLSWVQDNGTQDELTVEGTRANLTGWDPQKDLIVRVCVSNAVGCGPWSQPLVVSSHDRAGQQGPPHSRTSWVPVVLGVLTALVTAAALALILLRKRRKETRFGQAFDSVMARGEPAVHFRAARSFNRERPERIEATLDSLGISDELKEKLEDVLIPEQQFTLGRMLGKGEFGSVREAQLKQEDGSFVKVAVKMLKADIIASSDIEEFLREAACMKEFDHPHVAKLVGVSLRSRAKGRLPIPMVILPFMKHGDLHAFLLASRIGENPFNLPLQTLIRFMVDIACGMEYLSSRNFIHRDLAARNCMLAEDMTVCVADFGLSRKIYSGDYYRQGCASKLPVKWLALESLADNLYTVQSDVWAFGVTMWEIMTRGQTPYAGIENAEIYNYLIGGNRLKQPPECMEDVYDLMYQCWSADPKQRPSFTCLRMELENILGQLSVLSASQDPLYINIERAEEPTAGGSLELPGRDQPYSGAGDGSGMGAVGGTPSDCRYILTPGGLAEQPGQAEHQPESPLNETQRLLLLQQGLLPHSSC
# assay text: KINOMEscan competition binding
# assay context: compound 10.0 µM
reported endpoint: kinase still bound, per cent of control (%)
Record the value in %, omitting the unit from your answer.

Example cases with answers are listed next.
COc1ccc(N(C(=O)Oc2cc(C(=O)Nc3cccc(C(F)(F)F)c3)ccc2C)c2ccnc(Nc3ccc(N4CCN(C)CC4)cc3)n2)c(OC)c1 | 100
CCN1CCN(Cc2ccc(NC(=O)c3ccc(C)c(/C=C/c4cnc5[nH]ccc5c4OC)c3)cc2C(F)(F)F)CC1 | 100
CNC(=O)Nc1ccc(-c2nc(N3CC4CCC(C3)O4)c3cnn(C4CCC5(CC4)OCCO5)c3n2)cc1 | 100

What does the record list as kinase still bound, per cent of control for `Cc1cn(-c2cc(C(=O)Nc3ccc(C)c(NC(=O)c4ccno4)c3)cc(C(F)(F)F)c2)cn1` ?
100

What does the record list as kinase still bound, per cent of control for `C=CC(=O)Nc1ccc(C(=O)c2sc(Nc3ccc(N4CCN(C)CC4)cc3OC)nc2N)cc1` ?
100

What does the record list as kinase still bound, per cent of control for `CCOc1cc(N2CCC(O)CC2)ccc1Nc1ncc2c(n1)N(C)c1ccccc1C(=O)N2C` ?
100

What does the record list as kinase still bound, per cent of control for `CCc1nc(-c2cccc(C)c2)c(-c2ccnc(NC(=O)c3ccccc3)c2)s1` ?
83

What does the record list as kinase still bound, per cent of control for `COc1cc2ncnc(Nc3cccc(Cl)c3)c2cc1OC` ?
23

---

# experimental target: UniProtKB Q6DT37
# Sequence (Q6DT37 whole entry, looked up): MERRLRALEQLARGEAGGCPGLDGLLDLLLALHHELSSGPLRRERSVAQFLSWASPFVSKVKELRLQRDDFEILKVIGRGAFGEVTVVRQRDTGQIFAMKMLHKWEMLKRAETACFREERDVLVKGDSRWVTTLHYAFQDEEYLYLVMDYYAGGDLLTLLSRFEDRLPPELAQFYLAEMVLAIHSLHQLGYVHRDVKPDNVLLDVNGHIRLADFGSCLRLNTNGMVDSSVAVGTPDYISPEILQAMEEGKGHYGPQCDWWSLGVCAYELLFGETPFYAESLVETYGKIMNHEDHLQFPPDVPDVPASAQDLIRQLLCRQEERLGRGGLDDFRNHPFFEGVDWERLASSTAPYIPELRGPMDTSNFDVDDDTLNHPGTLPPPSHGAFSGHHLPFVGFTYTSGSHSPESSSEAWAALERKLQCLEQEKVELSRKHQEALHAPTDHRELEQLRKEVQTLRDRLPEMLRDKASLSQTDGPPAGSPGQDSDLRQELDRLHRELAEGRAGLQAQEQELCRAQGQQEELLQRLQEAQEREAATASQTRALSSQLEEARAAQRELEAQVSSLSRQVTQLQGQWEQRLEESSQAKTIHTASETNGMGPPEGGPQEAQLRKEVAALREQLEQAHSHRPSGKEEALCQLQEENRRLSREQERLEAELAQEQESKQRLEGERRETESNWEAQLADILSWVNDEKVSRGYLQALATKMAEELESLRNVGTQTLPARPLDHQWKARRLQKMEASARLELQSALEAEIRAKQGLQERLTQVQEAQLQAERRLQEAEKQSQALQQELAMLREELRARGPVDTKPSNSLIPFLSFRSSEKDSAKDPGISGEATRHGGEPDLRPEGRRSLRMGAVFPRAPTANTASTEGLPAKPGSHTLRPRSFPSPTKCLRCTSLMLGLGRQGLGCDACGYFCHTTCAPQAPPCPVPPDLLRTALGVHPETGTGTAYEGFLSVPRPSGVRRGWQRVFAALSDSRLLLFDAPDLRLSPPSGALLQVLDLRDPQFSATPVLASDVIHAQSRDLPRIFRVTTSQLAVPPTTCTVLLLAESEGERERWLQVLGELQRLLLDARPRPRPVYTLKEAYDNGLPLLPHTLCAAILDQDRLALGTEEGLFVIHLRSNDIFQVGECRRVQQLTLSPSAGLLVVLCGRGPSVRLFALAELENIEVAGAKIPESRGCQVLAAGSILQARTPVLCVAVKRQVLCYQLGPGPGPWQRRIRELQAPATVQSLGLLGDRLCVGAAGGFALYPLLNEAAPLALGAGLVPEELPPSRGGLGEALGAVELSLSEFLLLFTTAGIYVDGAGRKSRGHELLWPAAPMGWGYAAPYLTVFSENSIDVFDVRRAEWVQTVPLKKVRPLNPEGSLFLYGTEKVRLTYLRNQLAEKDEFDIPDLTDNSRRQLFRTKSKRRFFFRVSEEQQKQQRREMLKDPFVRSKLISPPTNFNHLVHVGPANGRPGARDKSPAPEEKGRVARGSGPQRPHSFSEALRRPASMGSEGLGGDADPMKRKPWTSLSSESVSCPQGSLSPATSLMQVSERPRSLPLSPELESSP
# assay text: KINOMEscan competition binding
# assay context: compound 10.0 µM
As shown below, each of these compounds has a reported kinase still bound, per cent of control value.
Record the value in %, omitting the unit from your answer.

Example cases with answers are listed next.
Cc1cn(-c2cc(C(=O)Nc3ccc(C)c(NC(=O)c4ccno4)c3)cc(C(F)(F)F)c2)cn1 | 100
O=c1[nH]c2ccccc2n1C1CCN(Cc2ccc(-c3nc4cc5[nH]cnc5cc4nc3-c3ccccc3)cc2)CC1 | 92
CCCS(=O)(=O)Nc1ccc(F)c(C(=O)c2c[nH]c3ncc(Cl)cc23)c1F | 74

What does the record list as kinase still bound, per cent of control for `CCN(CCO)CCCOc1ccc2c(Nc3cc(CC(=O)Nc4cccc(F)c4)[nH]n3)ncnc2c1` ?
100

What does the record list as kinase still bound, per cent of control for `COc1cc2c(Nc3ccc(NC(=O)c4ccccc4)cc3)ncnc2cc1OCCCN1CCOCC1` ?
72

What does the record list as kinase still bound, per cent of control for `N#C/C(=C1/Nc2ccccc2S1)c1ccnc(NCCc2cccnc2)n1` ?
89

What does the record list as kinase still bound, per cent of control for `COc1cc2ncnc(Nc3cccc(Cl)c3)c2cc1OC` ?
56

What does the record list as kinase still bound, per cent of control for `CNC(=O)Nc1ccc(-c2nc(N3CC4CCC(C3)O4)c3cnn(C4CCC5(CC4)OCCO5)c3n2)cc1` ?
84

What does the record list as kinase still bound, per cent of control for `CCOc1cc(N2CCC(O)CC2)ccc1Nc1ncc2c(n1)N(C)c1ccccc1C(=O)N2C` ?
100

What does the record list as kinase still bound, per cent of control for `CCN1CCN(Cc2ccc(NC(=O)c3ccc(C)c(/C=C/c4cnc5[nH]ccc5c4OC)c3)cc2C(F)(F)F)CC1` ?
16

---

As shown below, each of these compounds has a reported kinase still bound, per cent of control value.
# experimental target: PKN3 (M.tuberculosis) (UniProt Q6P5Z2)
# assay text: KINOMEscan competition binding
# assay context: compound 10.0 µM
Record the value in %, omitting the unit from your answer.

Example cases with answers are listed next.
COc1cc2ncnc(Nc3cccc(Cl)c3)c2cc1OC | 100
CCc1nc(-c2cccc(C)c2)c(-c2ccnc(NC(=O)c3ccccc3)c2)s1 | 100
N#C/C(=C1/Nc2ccccc2S1)c1ccnc(NCCc2cccnc2)n1 | 4.6

Continue with the compound presented below.
What does the record list as kinase still bound, per cent of control for `N#Cc1cc(-c2ccnc(Nc3ccc(-n4cnc(-c5cccnc5)n4)cc3)n2)cc(N2CCOCC2)c1` ?
6.3

---

As shown below, each of these compounds has a reported kinase still bound, per cent of control value.
# experimental target: MAPK8 (human)
# assay text: KINOMEscan competition binding
# assay context: compound 10.0 µM
Numeric answer plus unit only.

Example cases with answers are listed next.
COc1cc(C)c(Sc2cnc(NC(=O)c3ccc(CNC(C)C(C)C)cc3)s2)cc1C(=O)N1CCN(C(C)=O)CC1 (centres undefined) | 100%
COc1cc(N2CCC(C(N)=O)CC2)ccc1Nc1nc(N)c(Cl)c(Nc2ccccc2S(=O)(=O)C(C)C)n1 | 4.1%
Cc1cn(-c2cc(C(=O)Nc3ccc(C)c(NC(=O)c4ccno4)c3)cc(C(F)(F)F)c2)cn1 | 100%

Continue with the compound presented below.
What does the record list as kinase still bound, per cent of control for `CCOc1cc(N2CCC(O)CC2)ccc1Nc1ncc2c(n1)N(C)c1ccccc1C(=O)N2C` ?
100%
